Assayed target: T1, Rattus Kv1.1 (Rattus), P10499
T1 chain: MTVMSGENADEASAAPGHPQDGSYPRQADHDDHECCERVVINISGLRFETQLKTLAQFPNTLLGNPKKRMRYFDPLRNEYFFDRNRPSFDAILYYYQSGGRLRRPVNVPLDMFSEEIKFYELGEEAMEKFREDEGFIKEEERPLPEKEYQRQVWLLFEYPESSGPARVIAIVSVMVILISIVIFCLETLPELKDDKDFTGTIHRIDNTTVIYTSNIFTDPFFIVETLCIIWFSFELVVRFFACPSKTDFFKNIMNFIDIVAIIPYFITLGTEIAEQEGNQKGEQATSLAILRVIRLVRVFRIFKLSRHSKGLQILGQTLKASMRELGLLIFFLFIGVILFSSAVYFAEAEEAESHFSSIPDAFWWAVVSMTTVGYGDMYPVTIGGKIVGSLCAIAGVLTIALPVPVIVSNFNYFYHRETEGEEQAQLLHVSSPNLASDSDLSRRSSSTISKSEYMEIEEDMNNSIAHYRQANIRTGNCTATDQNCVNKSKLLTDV
I'd appreciate it if you could supply Ki values for the items below.
Give bare numbers, in nM.

1. GVPINVSCTGSPQCIKPCKDAGMRFGKCMNRKCHCTPK (modifications not checked) [Agitoxin-2 (AgTx2)] : 0.17

Note: attention shifts to another entry.
Ask: For GVEINVKCSGSPQCLKPCKDAGMRFGKCMNRKCHCTPK (modifications not checked) [Kaliotoxin-1 (KTX)] , write its Ki.
Reply: 1.1
